Experiment: chemical genetic growth profiling, strain panel (AID 1159580);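 further: tested at 20 µM; growth read once vehicle control cultures reached saturation at 30 °C; 1 = growth at the plate median or of vehicle wells; lower values mean less growth of the strain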
Conditions: S. cerevisiae deletion strains, growth OD, locus YDL035C, strain GPR1, stronger effect = lower value
About 2,000 (36%) of roughly 5,500 compounds were called active. Inconclusive results (about 18%) are left out. Some of the results follow.
property: normalized growth
Just the number, please.

Would you please look over these solved cases?
# compound, normalized growth
rows = [
    ("COc1cc(OC)c2c(OC)c(-c3ccc4c(c3)OCO4)c(=O)oc2c1", 0.987),
    ("O=C1C(=O)c2ccccc2C(O)=C1C1CCC(c2ccc(Cl)cc2)CC1 (stereo not drawn)", 0.993),
    ("O=C(O)CCC(=O)OC[C@@H](NC(=O)C(Cl)Cl)[C@H](O)c1ccc([N+](=O)[O-])cc1", 0.974),
]

Asked: Requested read-out: normalized growth. Entry: O=C1C=C(O)c2ccccc2C1=O
Given back: 1.01

Asked: Let us now turn to COc1ccc(-c2c(O)c3c(OC)c4c(cc3oc2=O)OC(C)(C)C=C4)cc1
Given back: 1

Asked: Let us now turn to O=C(N[C@@H](CO)[C@H](O)c1ccc([N+](=O)[O-])cc1)C(Cl)Cl
Given back: 0.997

Asked: Let us now turn to CNC(C)(C)Cc1ccccc1
Given back: 1.02

Asked: Let us now turn to COC(=O)C[C@H]1C(C)(C)[C@H](O)[C@@H]2CC3=C4CC(O)O[C@@H](c5ccoc5)[C@]4(C)CCC3[C@@]1(C)C2=O (stereo partly drawn)
Given back: 0.974

Source of measurements: PubChem BioAssay AID1159580
